Target: DLG4_2, P78352
Sequence (P78352 155-259): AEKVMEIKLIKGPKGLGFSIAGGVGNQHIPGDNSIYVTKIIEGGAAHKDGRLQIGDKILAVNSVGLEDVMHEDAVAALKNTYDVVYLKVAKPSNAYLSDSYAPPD
Assay: holdup assay
Parameters: key: below the threshold = too weak to quantify, mostly under pKd 3.1 to 4
Details: plain residues with an end cap or a label only (N-terminal biotin on a linker: ahx)
value-kind: pKd
Give bare numbers.

For orientation, consider the following solved cases.
Exam item: Please report the recorded pKd for TQKFRASTAL [FRMPD1, Q5SYB0] .
Marked response: 3.55

Exam item: Returns the measured pKd for the input binder. Input: QDEKVKESYV [ABCA1, O95477]
Marked response: 5.25

Exam item: Fill in: pKd of HTHSYIETHV [CNKSR2, Q8WXI2] is ___
Marked response: 4.98

Exam item: I would be grateful if you could share the reported pKd for APSRKLNTEI [TIAM1, Q13009] .
Marked response: 3.88

Would you kindly look at the next entry?
Exam item: Quick one: pKd for QPRTWLQSPV [RTKN, Q9BST9] ?
Marked response: 4.27
